The measurements presented in this section are drawn from patent US6319702A.

Test: Stability and biodistribution of prodrugs in vivo (HPLC of plasma and tissues)
Set-up: species or system mice (CD-1 nude; BALB/C where indicated)
Details: SMALL INTESTINE, 120 min, 50 mg/kg i.p. or i.v., CD-1 nude mice
The following molecules are shown together with reported concentration of prodrug in small intestine values.
Give the quantity in nmol/g, number only.

{"molecule": "CN(Cc1cnc2nc(N)nc(N)c2n1)c1ccc(C(=O)N[C@@H](CCC(=O)O)C(=O)N[C@@H](Cc2cccc(C3CCC3)c2)C(=O)O)cc1 [Prodrug 11]", "unit_label": "nmol/g", "obs_value": 140.0}
{"molecule": "CN(Cc1cnc2nc(N)nc(N)c2n1)c1ccc(C(=O)N[C@@H](CCC(=O)O)C(=O)N[C@@H](Cc2cccc(C(C)(C)C)c2)C(=O)O)cc1 [Prodrug 12]", "unit_label": "nmol/g", "obs_value": 44.9}
{"molecule": "CN(Cc1cnc2nc(N)nc(N)c2n1)c1ccc(C(=O)N[C@@H](CCC(=O)O)C(=O)N[C@@H](Cc2ccccc2C(=O)O)C(=O)O)cc1 [Prodrug 7]", "unit_label": "nmol/g", "obs_value": 24.1}

Exercise: Given the entry Cc1nc2ccc3ccc(CNc4ccc5c(c4)CN([C@@H](CCC(=O)O)C(=O)N[C@@H](Cc4ccccc4)C(=O)O)C5=O)cc3c2c(=O)[nH]1 [Prodrug 2] , report its measured concentration of prodrug in small intestine.
Solution: 17.6

Exercise: Follow-up item: CN(Cc1cnc2nc(N)nc(N)c2n1)c1ccc(C(=O)N[C@@H](CCC(=O)O)C(=O)N[C@@H](CC(=O)O)C(=O)O)cc1 [Prodrug 6]
Solution: 14.2

Exercise: Follow-up item: Cc1nc2ccc3ccc(CNc4ccc(C(=O)N[C@@H](CCC(=O)O)C(=O)N[C@@H](CCC(=O)O)C(=O)O)c(F)c4)cc3c2c(=O)[nH]1 [Prodrug 1]
Solution: 55.6
